The values you see were collected from ChEMBL document CHEMBL1147144.

# Tested on: Muscle tissue
# Method: Biodistribution in ICR mouse muscle at 5 to 10 uCi, iv after 1 hr
# Assay type: ADME, organism-based
# Settings: in vivo
Class Met: Drug uptake at least 0.6 % ID/g. Class Not met: Drug uptake below 0.6 % ID/g.

> print(dat)
                                        smi    group
1      OCCOc1ncc(/C=C/c2ccc(O)cc2)cc1[125I]  Not met
2  CNc1ccc(/C=C/c2cnc(OCCOCCOCCF)c([125I])c2)cc1      Met
3  CN(C)c1ccc(/C=C/c2cnc(OCCO)c([125I])c2)cc1  Not met
4   CNc1ccc(/C=C/c2cnc(OCCO)c([125I])c2)cc1  Not met

====

# Tested on: Kidney
# Method: Biodistribution in ICR mouse kidney at 5 to 10 uCi, iv after 2 mins
# Format: ADME, organism-based
# Settings: in vivo
Class Fulfilled: Drug uptake at least 10 % ID/g. Class Not fulfilled: Drug uptake below 10 % ID/g.

> print(dat)
                                        smi  tested.on          group
1  CNc1ccc(/C=C/c2cnc(OCCOCCOCCF)c([125I])c2)cc1     Kidney  Not fulfilled
2   CNc1ccc(/C=C/c2cnc(OCCO)c([125I])c2)cc1     Kidney      Fulfilled
3  CN(C)c1ccc(/C=C/c2cnc(OCCOCCOCCF)c([125I])c2)cc1     Kidney      Fulfilled
4      OCCOc1ncc(/C=C/c2ccc(O)cc2)cc1[125I]     Kidney      Fulfilled
5  CN(C)c1ccc(/C=C/c2cnc(OCCO)c([125I])c2)cc1     Kidney      Fulfilled

====

# Tested on: Lung
# Method: Biodistribution in ICR mouse lung at 5 to 10 uCi, iv after 30 mins
# Assay type: ADME, organism-based
# Settings: in vivo, 0.5 h
Measurement kind: Drug uptake (% ID/g)

> print(dat)
                                        smi   units  observed.result
1  CN(C)c1ccc(/C=C/c2cnc(OCCO)c([125I])c2)cc1  % ID/g             3.02
2      OCCOc1ncc(/C=C/c2ccc(O)cc2)cc1[125I]  % ID/g              3.1
3  CNc1ccc(/C=C/c2cnc(OCCOCCOCCF)c([125I])c2)cc1  % ID/g             3.01
4  CN(C)c1ccc(/C=C/c2cnc(OCCOCCOCCF)c([125I])c2)cc1  % ID/g              2.5
5   CNc1ccc(/C=C/c2cnc(OCCO)c([125I])c2)cc1  % ID/g             2.67

====

# Test system: Zone of skin
# Method: Biodistribution in ICR mouse skin at 5 to 10 uCi, iv after 2 mins
# Format: ADME, organism-based
# Settings: in vivo
Class T: Drug uptake at least 0.5 % ID/g. Class F: Drug uptake below 0.5 % ID/g.

> print(dat)
                                        smi  group
1  CNc1ccc(/C=C/c2cnc(OCCOCCOCCF)c([125I])c2)cc1      T
2  CN(C)c1ccc(/C=C/c2cnc(OCCO)c([125I])c2)cc1      F
3      OCCOc1ncc(/C=C/c2ccc(O)cc2)cc1[125I]      T
4   CNc1ccc(/C=C/c2cnc(OCCO)c([125I])c2)cc1      T
5  CN(C)c1ccc(/C=C/c2cnc(OCCOCCOCCF)c([125I])c2)cc1      T

====

# Tested on: Thyroid gland
# Method: Biodistribution in ICR mouse thyroid at 5 to 10 uCi, iv after 2 hrs
# Assay type: ADME, organism-based
# Settings: in vivo
Exam item: assign true (1) to entries whose Drug uptake is below 60 % ID/g and false (0) to entries at or above 60 % ID/g. Note that a value of exactly 60 % ID/g receives false (0).

> print(dat)
                                        smi      group
1   CNc1ccc(/C=C/c2cnc(OCCO)c([125I])c2)cc1  false (0)
2      OCCOc1ncc(/C=C/c2ccc(O)cc2)cc1[125I]   true (1)
3  CN(C)c1ccc(/C=C/c2cnc(OCCO)c([125I])c2)cc1   true (1)
4  CNc1ccc(/C=C/c2cnc(OCCOCCOCCF)c([125I])c2)cc1  false (0)

====

# System: Brain
# Method: Biodistribution in ICR mouse brain at 5 to 10 uCi, iv after 30 mins
# Assay type: ADME, organism-based
# Settings: in vivo, 0.5 h
Quick reference: Drug uptake of the listed items.
Measurement kind: Drug uptake (% ID/g)

> print(dat)
                                        smi  measurement.kind   units  observed.result
1      OCCOc1ncc(/C=C/c2ccc(O)cc2)cc1[125I]       Drug uptake  % ID/g             0.26
2  CN(C)c1ccc(/C=C/c2cnc(OCCOCCOCCF)c([125I])c2)cc1       Drug uptake  % ID/g             1.93
3  CN(C)c1ccc(/C=C/c2cnc(OCCO)c([125I])c2)cc1       Drug uptake  % ID/g             3.56
4  CNc1ccc(/C=C/c2cnc(OCCOCCOCCF)c([125I])c2)cc1       Drug uptake  % ID/g             1.23
5   CNc1ccc(/C=C/c2cnc(OCCO)c([125I])c2)cc1       Drug uptake  % ID/g             0.88

====

# Tested on: Spleen
# Method: Biodistribution in ICR mouse spleen at 5 to 10 uCi, iv after 30 mins
# Type: ADME, organism-based
# Settings: in vivo, 0.5 h
Quick reference: Drug uptake of the listed items.
Measurement kind: Drug uptake

> print(dat)
                                        smi  measurement.kind  observed.result
1  CNc1ccc(/C=C/c2cnc(OCCOCCOCCF)c([125I])c2)cc1       Drug uptake      2.49 % ID/g
2  CN(C)c1ccc(/C=C/c2cnc(OCCOCCOCCF)c([125I])c2)cc1       Drug uptake      1.42 % ID/g
3  CN(C)c1ccc(/C=C/c2cnc(OCCO)c([125I])c2)cc1       Drug uptake      1.94 % ID/g
4   CNc1ccc(/C=C/c2cnc(OCCO)c([125I])c2)cc1       Drug uptake      1.34 % ID/g
5      OCCOc1ncc(/C=C/c2ccc(O)cc2)cc1[125I]       Drug uptake      1.28 % ID/g

====

Quick reference: Drug uptake of the listed items.
# System: Kidney
# Method: Biodistribution in ICR mouse kidney at 5 to 10 uCi, iv after 1 hr
# Type: ADME, organism-based
# Settings: in vivo
Measurement kind: Drug uptake (% ID/g)

> print(dat)
                                        smi  measurement.kind  observed.result
1  CN(C)c1ccc(/C=C/c2cnc(OCCOCCOCCF)c([125I])c2)cc1       Drug uptake              2.3
2      OCCOc1ncc(/C=C/c2ccc(O)cc2)cc1[125I]       Drug uptake             2.94
3  CNc1ccc(/C=C/c2cnc(OCCOCCOCCF)c([125I])c2)cc1       Drug uptake             2.81
4  CN(C)c1ccc(/C=C/c2cnc(OCCO)c([125I])c2)cc1       Drug uptake             2.49
5   CNc1ccc(/C=C/c2cnc(OCCO)c([125I])c2)cc1       Drug uptake             2.16

====

# Test system: Liver
# Method: Biodistribution in ICR mouse liver at 5 to 10 uCi, iv after 1 hr
# Type: ADME, organism-based
# Settings: in vivo
Exam item: assign fulfilled to entries whose Drug uptake is below 6 % ID/g and not fulfilled to entries at or above 6 % ID/g. Note that a value of exactly 6 % ID/g receives not fulfilled.

> print(dat)
                                        smi  tested.on          group
1  CNc1ccc(/C=C/c2cnc(OCCOCCOCCF)c([125I])c2)cc1      Liver  not fulfilled
2      OCCOc1ncc(/C=C/c2ccc(O)cc2)cc1[125I]      Liver      fulfilled
3  CN(C)c1ccc(/C=C/c2cnc(OCCO)c([125I])c2)cc1      Liver  not fulfilled
4   CNc1ccc(/C=C/c2cnc(OCCO)c([125I])c2)cc1      Liver      fulfilled
5  CN(C)c1ccc(/C=C/c2cnc(OCCOCCOCCF)c([125I])c2)cc1      Liver      fulfilled
